system: HOP-92 NSCLC; test: NCI-60 one-dose screen, 48 h (100 = growth as untreated, 0 = no growth, -100 = all killed); conditions: 10 µM unless noted
The panel holds about 83,000 compounds, 20% with a hit somewhere; the sample as a whole holds those more often.
Listed next: entries and their corresponding growth.
Report the figure in % without appending any unit label.

O=C(c1ccc(O)cc1)C1[C@H](c2ccc(Cl)cc2)[C@@H](c2ccccc2)NC12C(=O)Nc1ccc(Br)cc12 (stereo partly drawn)    -32.2

Just so you know, measured growth for CC1=C(C(=O)Nc2ccccc2)C(c2cccc3ccccc23)n2c(nc3ccccc32)N1 (stereo not drawn) came out at 1.76

So for C#CCN(C)CCCOc1ccc(N(C)C(=O)c2cc(C(C)C)c(O)cc2O)cc1Cl , the logged growth turned out to be -23.9

growth for Cc1ccc(S(=O)(=O)Nc2ccc(-c3ccc4c(c3)NC(=O)/C4=C\c3ccc[nH]3)cc2)cc1 is 93.4

Per the records, this molecule ( COc1ccccc1NC(=O)c1ccc(NC(=O)CCl)s1 ) has growth equal to -0.226

Entry CCCSc1nnc(-c2c(C)nc3sccn23)o1 , growth reported as 73.8
